The measured values listed here are drawn from the nanobody polyreactivity screen of Harvey et al. (2022).

Assay: yeast display, Sf9 membrane polyspecificity reagent, FACS + sequencing; frameworks hold sequencing errors
Measured Endpoint: polyreactivity (PSR sort gate)

{"columns": ["Input Sequence", "Experimental Value"],
 "data": [
  ["QVQLVESGGGLVQAGGSLRLSCAASGRTFSRYAMGWYRQAPGKERELVAAITRSGGSTYYADSVKGRFTISRDNAKNTVYLQMNSLKPEDTAVYYCATERNLRNYDYWGQGTQVTVSS", "high polyreactivity"],
  ["QVQLVESGGGLVQAGGSLRLSCAASGSTFVSSAMGWYRQAPGKERELVARITWNGGNTYADSVKGRFTISRDNAKNTVYLQMNSLKPEDTAVYYCSTDYVVGFYYWGQGTQVTVSS", "low polyreactivity"],
  ["QVQLVESGGGLVQAGGSLRLTSAGSGRIFDYNAMGCYRQAPGKERELVAAITYSGGSTYYADSVKGRFTISRDNAKNTVYLQMNSLKPEDTAVYYCAAPDPYYHYRYPWQSRYDYNYWGQGTQVTVSS", "low polyreactivity"],
  ["QVQLVESGGGLVQSGGSLRLSCAASGRTFGYNAMGWYRQAPGKERELVAAISRSGDSTYYADSVKGRFTISRDNAKNTVYLQMNSLNPEVTAVFYCATRYVTTGYDYWGQGTQVTVSS", "low polyreactivity"],
  ["QVQHVESGGGLVQAGGSLRLSCAASGGIFYVNAMGWYRQEPGKERELVADITSDGVSKYYADSVKGRFTISRDNAKNTVYLQMNRLKPEDTAVYYCGGDNGGAGYYYGYVWYDYWGQGTQVTVSS", "low polyreactivity"],
  ["QVQLVESVGGLVQAGGSLRLSCAASGRIFYPYAMGWYRQAPGKERELVAAITRGGITTYADSVYGRFTISRDNAKNTVYLQMNSLKPEDTAVYYCNAVRWYGRMDYWGQGTQVTVSS", "low polyreactivity"],
  ["QVQLVESAGGLVQAGGSLRLSCAASGSIFHYYAMGWYRQAPGKERELVAAINSSGGSRTYYADSVKGRFTISRDKAKNTVYLQMNSLKPEDTAVYYCAADYRVVWRAYDYWGQGTQVTVSS", "low polyreactivity"],
  ["QVQLVESGGGLVQAGGSLRLSCAASGFTFRRYAMGWYIQAPGKERELVAAIRSTGGSTYYADSVKGRFTISRDNAKNTVYLQMNSLKPEDTAVYYCNAGTPVRGYNYWGQGTQVTVSS", "high polyreactivity"],
  ["QVQHVESGGGLVQAVGSLRLSCSASGITFHYYTMGWYRQAPGKEREFVAAISKSGGRTYYADSVKGRFTISRDKAKNTVYLQMNSLKPEDTAVYYCAGLYYFNGDYWGEGTQVTVSS", "high polyreactivity"],
  ["QVQLVESGGGLVQAGGSLRLSCAASGLTITYNAMGWYRQAPGKERELVAAISWSGDSTYADSVKGRFTISRDNAKNTVYLQKNSLKPEDTAVYYCAVPKYYYYVSRFNYWGQGTQVTVSS", "high polyreactivity"],
  ["QVQLVESGGGLVQAGGSLRLSCAASGFTFWRNTMGCSRQAPGKETEFVAAIDWSGGSTTYAVSVKGRFTFSRDNAKNSVYLQMNSLKPEDTAVYYCAAAERRRHYWWGQESDYWGQGTQVTVSS", "low polyreactivity"]
]}
